Target: BRG-1 (Homo sapiens, UniProt P51532)
Sequence (P51532 whole entry): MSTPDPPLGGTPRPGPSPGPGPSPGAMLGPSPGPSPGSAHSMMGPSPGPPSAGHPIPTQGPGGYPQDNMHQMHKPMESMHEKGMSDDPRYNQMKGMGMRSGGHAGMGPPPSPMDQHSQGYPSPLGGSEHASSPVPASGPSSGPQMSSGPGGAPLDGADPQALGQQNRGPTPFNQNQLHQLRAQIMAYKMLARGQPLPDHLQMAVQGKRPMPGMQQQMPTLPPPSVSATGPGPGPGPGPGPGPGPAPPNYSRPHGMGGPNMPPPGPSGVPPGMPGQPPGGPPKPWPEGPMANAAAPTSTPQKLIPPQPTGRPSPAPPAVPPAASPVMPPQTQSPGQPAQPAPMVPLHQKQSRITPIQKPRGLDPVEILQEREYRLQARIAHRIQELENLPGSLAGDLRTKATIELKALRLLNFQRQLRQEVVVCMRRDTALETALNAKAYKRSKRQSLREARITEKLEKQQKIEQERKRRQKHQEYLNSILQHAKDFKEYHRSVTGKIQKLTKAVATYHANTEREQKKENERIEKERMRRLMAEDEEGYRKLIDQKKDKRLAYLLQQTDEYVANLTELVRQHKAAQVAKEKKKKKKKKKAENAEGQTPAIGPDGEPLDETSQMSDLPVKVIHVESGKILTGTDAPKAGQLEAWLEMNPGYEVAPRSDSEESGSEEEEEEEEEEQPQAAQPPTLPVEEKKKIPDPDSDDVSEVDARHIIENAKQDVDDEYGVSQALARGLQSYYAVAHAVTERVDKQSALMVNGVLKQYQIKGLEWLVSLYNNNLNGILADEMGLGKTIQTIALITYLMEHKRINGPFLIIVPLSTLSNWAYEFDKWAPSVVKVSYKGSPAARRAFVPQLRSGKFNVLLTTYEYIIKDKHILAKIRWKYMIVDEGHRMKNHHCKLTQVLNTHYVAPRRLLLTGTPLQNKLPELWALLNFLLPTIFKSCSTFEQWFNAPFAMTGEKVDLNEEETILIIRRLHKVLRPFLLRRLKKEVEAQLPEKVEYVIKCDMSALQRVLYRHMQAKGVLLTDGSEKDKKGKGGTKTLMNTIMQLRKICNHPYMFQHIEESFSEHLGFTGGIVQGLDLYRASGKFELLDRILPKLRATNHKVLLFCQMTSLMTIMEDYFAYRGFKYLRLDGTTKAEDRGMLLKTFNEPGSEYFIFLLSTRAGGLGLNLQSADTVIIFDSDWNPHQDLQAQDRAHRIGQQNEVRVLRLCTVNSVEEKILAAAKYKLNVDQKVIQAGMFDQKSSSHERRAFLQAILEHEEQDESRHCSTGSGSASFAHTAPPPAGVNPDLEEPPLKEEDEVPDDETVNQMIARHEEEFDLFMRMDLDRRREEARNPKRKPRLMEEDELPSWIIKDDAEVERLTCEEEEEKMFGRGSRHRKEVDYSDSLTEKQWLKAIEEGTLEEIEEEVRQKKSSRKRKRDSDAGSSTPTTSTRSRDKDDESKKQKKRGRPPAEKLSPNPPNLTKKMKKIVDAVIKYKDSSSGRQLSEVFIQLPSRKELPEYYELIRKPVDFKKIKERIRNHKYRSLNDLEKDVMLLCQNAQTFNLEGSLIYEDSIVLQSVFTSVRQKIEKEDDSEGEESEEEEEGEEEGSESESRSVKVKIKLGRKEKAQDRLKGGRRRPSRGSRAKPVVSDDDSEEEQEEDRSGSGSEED
Assay: ATPase catalytic activity of BRG-1 (ADP-Glo in vitro biochemical assay)
Settings: Table 5
Measured endpoint: BRG1 Max % Inhibition

Dear colleague, please send me the reported BRG1 Max % Inhibition for Cc1ccc(C(=O)NCC(=O)Nc2nc(-c3ccccc3)cs2)cc1S(C)(=O)=O when you can.
>30%

Report BRG1 Max % Inhibition, nothing else, for this molecule: CN(C)S(=O)(=O)c1cccc(C(=O)NCC(=O)Nc2nc(-c3ccc4c(c3)OCCO4)cs2)c1
>60%

Please report the measured BRG1 Max % Inhibition for CN(C)S(=O)(=O)c1cccc(C(=O)NCC(=O)Nc2nc(-c3ccccc3)cs2)c1
>30%

Fill in reported BRG1 Max % Inhibition for this entry: CN(C)S(=O)(=O)c1cccc(C(=O)NCC(=O)Nc2nc(-c3cccc(CN)c3)cs2)c1
>90%

* * *

Molecular target: UniProtKB P51532
Test: ATPase catalytic activity of BRG-1 (ADP-Glo in vitro biochemical assay)
Conditions: Table 6
Measured endpoint: BRG1 Max % Inhibition

Would you please look over these solved cases?
[[record]]
compound = "Nc1ccc(C(=O)NCC(=O)Nc2nc(-c3ccc(O)cc3)cs2)cc1"
experimental_target = "UniProtKB P51532"
value_observed = ">90%"

[[record]]
compound = "Nc1ccc(C(=O)NCC(=O)Nc2nc(-c3cccc(CCc4ccncc4)c3)cs2)cc1"
experimental_target = "UniProtKB P51532"
value_observed = ">90%"

[[record]]
compound = "N#Cc1cccc(-c2cccc(-c3csc(NC(=O)CNC(=O)c4ccc(N)cc4)n3)c2)c1"
experimental_target = "UniProtKB P51532"
value_observed = ">90%"

[[record]]
compound = "CC(=O)N(C)Cc1cccc(-c2cccc(-c3csc(NC(=O)CNC(=O)c4ccc(N)cc4)n3)c2)c1"
experimental_target = "UniProtKB P51532"
value_observed = ">95%"

[[record]]
compound = "Nc1ccc(C(=O)NCC(=O)Nc2nc(-c3cccc(-c4ccnc(N5CCCCS5(=O)=O)c4)c3)cs2)cc1"
experimental_target = "UniProtKB P51532"
value_observed = ">80%"

[[record]]
compound = "CC(OC1CCOCC1)c1cccc(-c2csc(NC(=O)CNC(=O)c3ccc(N)cc3)n2)c1 (stereo not drawn)"
experimental_target = "UniProtKB P51532"
value_observed = ">70%"

[[record]]
compound = "CN(C)C1CCCN(c2cc(-c3cccc(-c4csc(NC(=O)CNC(=O)c5ccc(N)cc5)n4)c3)ccn2)C1 (stereo not drawn)"
experimental_target = "UniProtKB P51532"
value_observed = ">90%"

[[record]]
compound = "Cn1cnc2ccc(-c3csc(NC(=O)CNC(=O)c4ccc(N)cc4)n3)cc2c1=O"
experimental_target = "UniProtKB P51532"
value_observed = ">95%"


Quick one: give measured BRG1 Max % Inhibition for Cc1nnc(C(=O)NC(C)(C)c2cc(-c3cccc(-c4csc(NC(=O)CNC(=O)c5ccc(N)cc5)n4)c3)ccn2)o1
>90%

Indicate the recorded BRG1 Max % Inhibition value for this compound: Nc1ccc(C(=O)NCC(=O)Nc2nc(-c3cccc(-c4cc[n+]([O-])cc4)c3)cs2)cc1
>90%

Give BRG1 Max % Inhibition for the following compound: CN(C)Cc1ccc(-c2cccc(-c3csc(NC(=O)CNC(=O)c4ccc(N)cc4)n3)c2)cc1
>90%

State its BRG1 Max % Inhibition: CO[C@H]1CCCN(c2cccc(-c3csc(NC(=O)CNC(=O)c4ccc(N)cc4)n3)c2)C1
>95%

Using the record for C[C@H](NC(=O)c1ccc(N)cc1)C(=O)Nc1nc(-c2cccc(-c3ccncc3)c2)cs1 , state its measured BRG1 Max % Inhibition.
>95%

Look up and report measured BRG1 Max % Inhibition for this entry: NC[C@H]1CC[C@@H](c2cccc(-c3csc(NC(=O)CNC(=O)c4ccc(N)cc4)n3)c2)CC1
>80%

Answer with reported BRG1 Max % Inhibition of CN(C)CC[C@H](NC(=O)c1ccc(N)cc1)C(=O)Nc1nc(-c2cccc(-c3ccncc3)c2)cs1
>80%

* * *

Molecular target: UniProt:P51531
Sequence (P51531 whole entry): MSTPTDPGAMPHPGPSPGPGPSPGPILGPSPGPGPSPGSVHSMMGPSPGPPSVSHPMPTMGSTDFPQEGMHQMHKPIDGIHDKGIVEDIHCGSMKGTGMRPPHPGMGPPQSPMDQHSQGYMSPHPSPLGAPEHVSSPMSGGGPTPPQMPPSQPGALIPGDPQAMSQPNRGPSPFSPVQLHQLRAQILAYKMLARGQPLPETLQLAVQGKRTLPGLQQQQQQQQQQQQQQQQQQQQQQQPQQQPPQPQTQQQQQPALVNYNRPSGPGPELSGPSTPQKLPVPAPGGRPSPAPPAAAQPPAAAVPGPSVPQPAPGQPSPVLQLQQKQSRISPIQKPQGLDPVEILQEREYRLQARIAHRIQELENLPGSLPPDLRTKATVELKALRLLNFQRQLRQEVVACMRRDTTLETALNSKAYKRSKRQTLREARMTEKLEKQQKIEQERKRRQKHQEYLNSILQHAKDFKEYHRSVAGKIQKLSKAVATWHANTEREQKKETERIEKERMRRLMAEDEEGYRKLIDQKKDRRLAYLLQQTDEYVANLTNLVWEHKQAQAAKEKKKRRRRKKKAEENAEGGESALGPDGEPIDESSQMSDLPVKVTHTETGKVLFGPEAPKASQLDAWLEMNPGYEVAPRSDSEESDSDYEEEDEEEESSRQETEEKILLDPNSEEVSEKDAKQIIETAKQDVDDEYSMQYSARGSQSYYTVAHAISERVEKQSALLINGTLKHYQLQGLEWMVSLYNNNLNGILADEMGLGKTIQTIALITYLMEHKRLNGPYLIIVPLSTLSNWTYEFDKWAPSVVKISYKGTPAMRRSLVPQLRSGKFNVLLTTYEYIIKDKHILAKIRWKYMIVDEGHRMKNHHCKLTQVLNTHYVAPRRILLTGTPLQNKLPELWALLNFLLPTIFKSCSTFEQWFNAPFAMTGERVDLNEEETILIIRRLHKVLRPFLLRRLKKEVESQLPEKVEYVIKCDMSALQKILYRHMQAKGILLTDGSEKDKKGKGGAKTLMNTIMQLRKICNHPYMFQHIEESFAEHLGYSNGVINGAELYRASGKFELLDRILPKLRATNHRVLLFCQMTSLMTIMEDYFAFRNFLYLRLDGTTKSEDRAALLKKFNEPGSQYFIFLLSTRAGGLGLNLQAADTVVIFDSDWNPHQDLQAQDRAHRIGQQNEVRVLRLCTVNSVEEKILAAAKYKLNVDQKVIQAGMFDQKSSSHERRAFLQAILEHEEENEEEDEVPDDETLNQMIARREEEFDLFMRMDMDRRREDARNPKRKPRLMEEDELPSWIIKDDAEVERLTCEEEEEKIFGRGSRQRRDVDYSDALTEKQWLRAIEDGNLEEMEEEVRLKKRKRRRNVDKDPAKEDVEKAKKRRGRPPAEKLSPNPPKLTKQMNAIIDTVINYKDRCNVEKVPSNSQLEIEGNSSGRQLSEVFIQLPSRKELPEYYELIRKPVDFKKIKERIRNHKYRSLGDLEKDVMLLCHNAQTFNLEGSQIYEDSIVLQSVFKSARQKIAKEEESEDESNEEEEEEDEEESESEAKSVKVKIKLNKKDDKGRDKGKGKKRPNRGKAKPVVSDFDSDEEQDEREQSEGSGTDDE
Test: ATPase catalytic activity of BRM (ADP-Glo in vitro biochemical assay)
Conditions: Table 6
Measured endpoint: BRM Max % Inhibition

[[record]]
compound = "Nc1ccc(C(=O)NCC(=O)Nc2nc(-c3cccc(-c4ccc(O)cc4)c3)cs2)cc1"
measured_endpoint = "BRM Max % Inhibition"
value_observed = ">95%"


# return recorded BRM Max % Inhibition for input Nc1ccc(C(=O)NCC(=O)Nc2nc(-c3cccc(-c4ccnc(N5CCCCS5(=O)=O)c4)c3)cs2)cc1
>80%

Determine its reported BRM Max % Inhibition: NCc1cc(-c2cccc(-c3csc(NC(=O)CNC(=O)c4ccc(N)cc4)n3)c2)ccn1
>95%

Name the recorded BRM Max % Inhibition of the item CC(C)(N)c1cc(-c2cccc(-c3csc(NC(=O)CNC(=O)c4ccc(N)cc4)n3)c2)ccn1 in your answer.
>95%

Please look at this compound and report its BRM Max % Inhibition: NCCn1ccc2ccc(-c3csc(NC(=O)CNC(=O)c4ccc(N)cc4)n3)cc2c1=O
>95%

State its BRM Max % Inhibition: Nc1ccc(C(=O)NCC(=O)Nc2nc(-c3cccc(-c4ccc(CO)cc4)c3)cs2)cc1
>90%

Entry CC(OC1CCOCC1)c1cccc(-c2csc(NC(=O)CNC(=O)c3ccc(N)cc3)n2)c1 (stereo not drawn) needs its BRM Max % Inhibition filled in; supply it.
>90%

Quick one: give measured BRM Max % Inhibition for CC(C)(O)Cn1ccc(-c2cccc(-c3csc(NC(=O)CNC(=O)c4ccc(N)cc4)n3)c2)n1
>95%

* * *

Target: UniProtKB P51532
Test: ATPase catalytic activity of BRG-1 (ADP-Glo in vitro biochemical assay)
Details: Table 6
This listing pairs compounds with measured BRG1 Max % Inhibition.

[[record]]
smi = "Cc1nc(-c2cccc(-c3csc(NC(=O)CNC(=O)c4ccc(N)cc4)n3)c2)cn1C"
value_observed = ">80%"


Report measured BRG1 Max % Inhibition; entry is Nc1ccc(C(=O)NCC(=O)Nc2nc(-c3ccc4cncnc4c3)cs2)cc1
>80%

Fill in BRG1 Max % Inhibition for record Nc1ccc(C(=O)NCC(=O)Nc2nc(-c3cccc(-c4ccnc(CO)c4)c3)cs2)cc1
>95%

Tell me measured BRG1 Max % Inhibition for CN(C)C(=O)CN(C)c1cc(-c2cccc(-c3csc(NC(=O)CNC(=O)c4ccc(N)cc4)n3)c2)ccn1 please.
>95%

Give the value of BRG1 Max % Inhibition reported for the following: CNC(=O)CN(C)c1cc(-c2cccc(-c3csc(NC(=O)CNC(=O)c4ccc(N)cc4)n3)c2)ccn1
>95%

Give the value of BRG1 Max % Inhibition reported for the following: CNC(=O)c1ccc(-c2cccc(-c3csc(NC(=O)CNC(=O)c4ccc(N)cc4)n3)c2)cc1
>70%

Tell me measured BRG1 Max % Inhibition for Nc1ccc(C(=O)NCC(=O)Nc2nc(-c3cccc(N4CCC(C(=O)O)CC4)c3)cs2)cc1 please.
>60%

# return recorded BRG1 Max % Inhibition for input CC(C)(O)Cn1ccc(-c2cccc(-c3csc(NC(=O)CNC(=O)c4ccc(N)cc4)n3)c2)n1
>95%

Output measured BRG1 Max % Inhibition for this item: CN(C)CCNc1cc(-c2cccc(-c3csc(NC(=O)CNC(=O)c4ccc(N)cc4)n3)c2)ccn1
>90%

Return BRG1 Max % Inhibition (reported value) for this compound: CSCC[C@H](NC(=O)c1ccc(N)cc1)C(=O)Nc1nc(-c2cccc(-c3ccc(CN)cc3)c2)cs1
>90%

Report BRG1 Max % Inhibition, nothing else, for this compound: CC(=O)NCc1ccc(-c2cccc(-c3csc(NC(=O)CNC(=O)c4ccc(N)cc4)n3)c2)cc1
>80%

Supply measured BRG1 Max % Inhibition of CC(=O)N(C)Cc1ccc(-c2cccc(-c3csc(NC(=O)CNC(=O)c4ccc(N)cc4)n3)c2)cc1 in your reply.
>90%

// Input: Cn1ncc2ccc(-c3csc(NC(=O)CNC(=O)c4ccc(N)cc4)n3)cc2c1=O . Output its BRG1 Max % Inhibition only.
>90%

Using known records, supply BRG1 Max % Inhibition for COCC[C@H](NC(=O)c1ccc(N)cc1)C(=O)Nc1nc(-c2cccc(-c3ccncc3)c2)cs1
>95%

Consider the compound CC(C)(N)Cn1ccc(-c2cccc(-c3csc(NC(=O)CNC(=O)c4ccc(N)cc4)n3)c2)n1 and give its recorded BRG1 Max % Inhibition.
>90%

* * *

Target: BRG-1 (Homo sapiens, UniProt P51532)
Test: ATPase catalytic activity of BRG-1 (ADP-Glo in vitro biochemical assay)
Settings: Table 6
Measured endpoint: BRG1 Max % Inhibition

Solved cases below.
[[record]]
compound = "CNc1ccc(C(=O)NCC(=O)Nc2nc(-c3cccc(-c4ccncc4)c3)cs2)cc1"
experimental_target = "BRG-1 (Homo sapiens, UniProt P51532)"
value_observed = ">80%"

[[record]]
compound = "CNC(=O)Cn1ccc(-c2cccc(-c3csc(NC(=O)CNC(=O)c4ccc(N)cc4)n3)c2)n1"
experimental_target = "BRG-1 (Homo sapiens, UniProt P51532)"
value_observed = ">95%"

[[record]]
compound = "Cn1ncc2ccc(-c3csc(NC(=O)CNC(=O)c4ccc(N)cc4)n3)cc21"
experimental_target = "BRG-1 (Homo sapiens, UniProt P51532)"
value_observed = ">90%"

[[record]]
compound = "Cn1ccc2ccc(-c3csc(NC(=O)CNC(=O)c4ccc(N)cc4)n3)cc2c1=O"
experimental_target = "BRG-1 (Homo sapiens, UniProt P51532)"
value_observed = ">95%"


In one line, give reported BRG1 Max % Inhibition of the entry Nc1ccc(C(=O)NCC(=O)Nc2nc(-c3cncc(-c4ccncc4)c3)cs2)cc1 .
>80%

Name the recorded BRG1 Max % Inhibition of the item Cc1cnccc1-c1cccc(-c2csc(NC(=O)CNC(=O)c3ccc(N)cc3)n2)c1 in your answer.
>80%
